Where these numbers come from: ChEMBL document CHEMBL1123812

EXPERIMENTAL SYSTEM: D(2) dopamine receptor (Rattus norvegicus) (UniProt P61169)
Sequence (P61169 whole entry): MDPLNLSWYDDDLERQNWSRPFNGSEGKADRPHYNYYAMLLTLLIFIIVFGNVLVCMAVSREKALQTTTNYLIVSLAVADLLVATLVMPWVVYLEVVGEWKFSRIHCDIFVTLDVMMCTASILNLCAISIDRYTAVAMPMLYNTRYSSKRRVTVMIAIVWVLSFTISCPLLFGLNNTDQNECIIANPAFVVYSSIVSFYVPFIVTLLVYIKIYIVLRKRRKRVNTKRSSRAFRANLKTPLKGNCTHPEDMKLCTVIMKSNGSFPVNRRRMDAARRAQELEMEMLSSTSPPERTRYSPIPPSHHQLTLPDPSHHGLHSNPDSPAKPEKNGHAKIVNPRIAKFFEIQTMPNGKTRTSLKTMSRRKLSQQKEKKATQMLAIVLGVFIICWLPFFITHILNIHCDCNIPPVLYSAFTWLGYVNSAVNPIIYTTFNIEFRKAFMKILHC
EXPERIMENT SUMMARY: Binding affinity towards dopamine receptor D2 at 1.0 uM concentration
Outcome label depends on inhibition relative to 40%: at/above gives rule met, below gives rule not met.

Use the examples below as a reference point.
COc1ccc2c(c1)CN(C)CC2c1ccc(Cl)c(Cl)c1 (centres undefined) [DICLOFENSINE] ... rule not met
Br.Oc1ccc([C@@H]2CN3CCC[C@H]3c3ccccc32)cc1O ... rule not met
Clc1ccc([C@@H]2CN3CCC[C@@H]3c3ccccc32)cc1Cl ... rule not met
Br.Nc1ccc([C@@H]2CN3CCC[C@H]3c3ccccc32)cc1 ... rule not met
COc1cc2c(cc1OC)[C@H]1CCCN1C[C@H]2c1ccccc1 ... rule not met
Clc1ccc([C@@H]2CN3CCC[C@@H]3c3cc(Cl)ccc32)cc1 ... rule met

Please check the record Br.COc1cc([C@@H]2CN3CCC[C@@H]3c3ccccc32)cc(OC)c1OC and state if its inhibition is at or above 40%.
rule not met

// inclusive: inhibition at least 40%? input: Br.Oc1ccc([C@@H]2CN3CCC[C@@H]3c3ccccc32)cc1
rule met
